- Tested on: 783C-6
- Assay: High-throughput drug screen, CellTiter-Glo viability, 72 h
- Type: cell-based, human
- Design: scale not given here
- Condition context: 783C-6 DSRT analysis; area under the dose-response curve
We use 20 as the dividing line for AUC: on or above the line is Y, below is N.

Request: Is AUC for CCS(=O)(=O)N1CCC([C@@H](C)n2c(C)c(C(=O)NCc3c(OC)cc(C)[nH]c3=O)c3ccccc32)CC1 at or above 20?
Result: N

Request: Hi team, for c1cncc(-c2cn[nH]n2)c1 , is the recorded AUC at or above 20?
Result: N

Request: Hi, just wondering whether C#Cc1cccc(Nc2ncnc3cc4c(cc23)OCCOCCOCCO4)c1 shows AUC of 20 or higher.
Result: N

Request: Item Clc1ccc(N/N=C(\c2ccccc2)c2ccccn2)nc1 with AUC of 20 or above?
Result: Y

Request: Form field: AUC at least 20? Entry: CCCCCCCc1ccc(CCc2cccc(O)c2C(=O)O)cc1
Result: N

Request: Could you tell me if the measured AUC of COc1cc2c(NC3CCN(C)CC3)cc(-c3ccc(C)o3)nc2cc1OCCCN1CCCC1 reaches 20 or more?
Result: Y

Request: In plain terms: is recorded AUC at least 20 for COc1cc2c(Oc3ccc4[nH]c(C)cc4c3F)ncnc2cc1OCCCN1CCCC1 ?
Result: Y

Request: # bool: AUC of Cc1ccc(F)c(NC(=O)Nc2ccc(-c3cccc4[nH]nc(N)c34)cc2)c1 >= 20
Result: Y

Request: hey, is AUC for this one >= 20? O=C(O)CCNc1cc(N2CCc3ccccc3CC2)nc(-c2ccccn2)n1
Result: N

* * *

- Tested on: 783C-6
- Assay: High-throughput drug screen, CellTiter-Glo viability, 72 h
- Format: cell-based, human
- Condition context: 783C-6 cells, DSS of DSRT analysis
Labelling field: enter rule met if recorded DSS is less than 2. Enter rule not met if it equals or exceeds that cut-off.

Request: Check if DSS falls below 2 for N[C@H]1CC[C@H](N[C@@H]2C[C@H]2c2ccccc2)CC1 [ORY-1001] .
Result: rule met

Request: Does the reported DSS of the following compound sit strictly below 2? CCN1C(=O)N(c2c(F)c(OC)cc(OC)c2F)Cc2cnc3[nH]c(CN4CCOCC4)cc3c21 [Pemigatinib]
Result: rule not met

Request: Please check: DSS for COC(=O)c1ccc2c(c1)NC(=O)/C2=C(\Nc1ccc(N(C)C(=O)CN2CCN(C)CC2)cc1)c1ccccc1 [Nintedanib] , strictly under 2 or not?
Result: rule met

Request: Given the entry O=C1CCc2c(ccc3ccccc23)O1 [Splitomicin] , would its reported DSS be below 2?
Result: rule met

Request: Strictly below 2 in DSS? Cc1cc(-c2ccccc2)cc(C(=O)NNS(=O)(=O)c2ccccc2)c1F [WM-8014]
Result: rule met

Request: In plain terms, does O=C(CCCCCN1C(=O)c2cccc3cccc(c23)C1=O)NO [Scriptaid] come in under 2 for DSS?
Result: rule not met

Request: Field: below-cutoff. Rule: recorded DSS strictly less than 2. Subject: O=C(O)C(=O)O.[NH-][C@@H]1CCCC[C@H]1[NH-].[Pt+2] [Oxaliplatin]
Result: rule not met

Request: Identify whether the compound O=C(Nc1ccc(O)c(C(=O)O)c1)c1cccc(NC(=O)c2ccco2)c1 [OSS_128167] records DSS below 2.
Result: rule met

Request: Does the reported DSS of Cc1cc(-c2ccc3nc(C4CCOCC4)n(CCOC(F)(F)F)c3c2)cn(C)c1=O [NEO2734] stay below 2?
Result: rule not met
